- Subject of test: T1, IFN-αC (human, UniProt P01566 24-189)
- T1 construct: also called IFN-α10; alpha C
- Assay: ProteOn, one antigen concentration
Hi! Just check whether Kd is below 0.08 nM. Below gives Y, equal or above gives N.

query: Quick check: Kd of IFWM3335 (antibody, V domains shown, VH IFWH591, VL IFWL1084; converted mAb; also called IFWB3070) VH: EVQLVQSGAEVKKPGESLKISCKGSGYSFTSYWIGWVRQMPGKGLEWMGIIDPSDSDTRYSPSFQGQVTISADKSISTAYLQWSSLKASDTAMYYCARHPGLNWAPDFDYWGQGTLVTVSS VL: DIQMTQSPSSLSASVGDRVTITCRASQSINYLNWYQQKPGKAPKLLIYGASSLQSGVPSRFSGSGSGTDFTLTISSLQPEDFATYYCQQSHDWPITFGQGTKVEIK under 0.08 nM?
result: Y

query: Moving on to IFWM3353 (antibody, V domains shown, VH IFWH624, VL IFWL1014; converted mAb; also called IFWB3088) VH: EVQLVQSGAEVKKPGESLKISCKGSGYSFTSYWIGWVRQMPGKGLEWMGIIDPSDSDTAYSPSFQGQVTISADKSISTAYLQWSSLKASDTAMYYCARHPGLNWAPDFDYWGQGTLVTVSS VL: DIQMTQSPSSLSASVGDRVTITCRASQSIDRALNWYQQKPGKAPKLLIYFASSLQSGVPSRFSGSGSGTDFTLTISSLQPEDFATYYCQQSFDFPLTFGQGTKVEIK
result: Y

query: Moving on to IFWM3359 (antibody, V domains shown, VH IFWH624, VL IFWL1047; converted mAb; also called IFWB3094) VH: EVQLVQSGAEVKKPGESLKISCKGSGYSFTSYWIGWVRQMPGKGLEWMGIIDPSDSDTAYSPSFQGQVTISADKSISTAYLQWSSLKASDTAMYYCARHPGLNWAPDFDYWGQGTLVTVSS VL: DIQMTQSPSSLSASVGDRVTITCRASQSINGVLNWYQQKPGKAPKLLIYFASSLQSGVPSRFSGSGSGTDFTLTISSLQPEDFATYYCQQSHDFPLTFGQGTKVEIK
result: Y

query: Moving on to IFWM3310 (antibody, V domains shown, VH IFWH591, VL IFWL1007; converted mAb; also called IFWB3045) VH: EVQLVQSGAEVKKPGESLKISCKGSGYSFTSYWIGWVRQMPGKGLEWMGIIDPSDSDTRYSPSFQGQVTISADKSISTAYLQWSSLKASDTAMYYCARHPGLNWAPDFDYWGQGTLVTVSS VL: DIQMTQSPSSLSASVGDRVTITCRASQSIGKSLNWYQQKPGKAPKLLIYFASSLQSGVPSRFSGSGSGTDFTLTISSLQPEDFATYYCQQSYDFPLTFGQGTKVEIK
result: Y

query: Moving on to IFWM3348 (antibody, V domains shown, VH IFWH624, VL IFWL1006; converted mAb; also called IFWB3083) VH: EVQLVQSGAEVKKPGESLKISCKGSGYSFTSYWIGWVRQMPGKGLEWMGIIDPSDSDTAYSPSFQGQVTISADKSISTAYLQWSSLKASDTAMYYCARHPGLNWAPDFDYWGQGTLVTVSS VL: DIQMTQSPSSLSASVGDRVTITCRASQSIGGFLNWYQQKPGKAPKLLIYFASSLQSGVPSRFSGSGSGTDFTLTISSLQPEDFATYYCQQSYSLPITFGQGTKVEIK
result: N

query: Moving on to IFWM3292 (antibody, V domains shown, VH IFWH624, VL IFWL999; converted mAb; also called IFWB3027) VH: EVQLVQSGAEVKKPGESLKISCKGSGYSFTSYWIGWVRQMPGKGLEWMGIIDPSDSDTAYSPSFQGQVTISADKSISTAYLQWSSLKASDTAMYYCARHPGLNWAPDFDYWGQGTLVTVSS VL: DIQMTQSPSSLSASVGDRVTITCRASQSIDEFLNWYQQKPGKAPKLLIYFASSLQSGVPSRFSGSGSGTDFTLTISSLQPEDFATYYCQQAHSFPLTFGQGTKVEIK
result: N

query: Moving on to IFWM3309 (antibody, V domains shown, VH IFWH591, VL IFWL1006; converted mAb; also called IFWB3044) VH: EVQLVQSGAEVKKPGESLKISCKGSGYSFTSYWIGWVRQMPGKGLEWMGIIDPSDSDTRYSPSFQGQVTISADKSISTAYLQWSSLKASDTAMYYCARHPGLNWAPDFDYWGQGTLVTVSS VL: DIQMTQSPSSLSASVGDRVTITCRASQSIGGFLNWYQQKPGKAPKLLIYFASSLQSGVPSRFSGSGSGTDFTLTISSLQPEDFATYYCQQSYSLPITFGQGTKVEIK
result: N

query: Moving on to IFWM3317 (antibody, V domains shown, VH IFWH591, VL IFWL1026; converted mAb; also called IFWB3052) VH: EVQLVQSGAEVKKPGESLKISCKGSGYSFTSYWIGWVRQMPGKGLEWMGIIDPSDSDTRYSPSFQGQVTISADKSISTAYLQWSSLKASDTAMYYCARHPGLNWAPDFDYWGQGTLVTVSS VL: DIQMTQSPSSLSASVGDRVTITCRASQSISKFLNWYQQKPGKAPKLLIYFASSLQSGVPSRFSGSGSGTDFTLTISSLQPEDFATYYCQQSYDFPITFGQGTKVEIK
result: N

query: Moving on to IFWM3337 (antibody, V domains shown, VH IFWH591, VL IFWL1087; converted mAb; also called IFWB3072) VH: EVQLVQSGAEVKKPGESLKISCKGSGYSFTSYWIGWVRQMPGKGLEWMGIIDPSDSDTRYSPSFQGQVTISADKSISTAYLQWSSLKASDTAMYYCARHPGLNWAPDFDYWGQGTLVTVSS VL: DIQMTQSPSSLSASVGDRVTITCRASQSISNSNLNWYQQKPGKAPKLLIHWASSLQSGVPSRFSGSGSGTDFTLTISSLQPEDFATYYCQQWYDHPLTFGQGTKVEIK
result: Y

query: Moving on to IFWM3358 (antibody, V domains shown, VH IFWH624, VL IFWL1041; converted mAb; also called IFWB3093) VH: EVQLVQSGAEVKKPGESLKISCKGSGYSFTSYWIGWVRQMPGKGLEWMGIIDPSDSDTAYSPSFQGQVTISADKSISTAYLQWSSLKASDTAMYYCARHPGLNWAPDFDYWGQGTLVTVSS VL: DIQMTQSPSSLSASVGDRVTITCRASQSITGFLNWYQQKPGKAPKLLIYAASSLQSGVPSRFSGSGSGTDFTLTISSLQPEDFATYYCQQSHDFPLTFGQGTKVEIK
result: Y

Hello, the source for this data is patent US20150368338A1, in case you need it.
